The measurements presented in this section are drawn from patent US10093630B2.

- system under test: MAGL (Mus musculus)
- Construct: Proteomes (mouse brain membrane fraction or cell lysates); from tissue; host or cells: mouse brain membrane fraction (or cell lysates, not specified)
- run description: In vitro competitive activity-based protein profiling (gel-based, FP-Rh or HT-01 probe)
- Assay type: biochemical
- cond: 10 μM inhibitor
Would you mind telling me the reported inhibition at 10 µM of each entry?

[Q] Query inhibition at 10 µM for COc1cccc(N2CCN(C(=O)n3cc(C(F)(F)F)cn3)CC2)c1
[A] > 75%

[Q] Determine from records and report inhibition at 10 µM for CS(=O)(=O)N1CCCN(C(=O)n2cc(C(F)(F)F)cn2)CC1
[A] 25 to 75%

[Q] Assign inhibition at 10 µM to the following record: O=C(N1CCN(c2ccc(Cl)cc2)CC1)n1cc(C(F)(F)F)cn1
[A] > 75%

[Q] Name the recorded inhibition at 10 µM of the item O=C(N1CCN(Cc2c(N3CCCC3)cccc2C(F)(F)F)CC1)n1cc(C(F)(F)F)cn1 in your answer.
[A] > 75%

[Q] Report inhibition at 10 µM for COc1ccccc1-c1ccc(-c2cnn(C(=O)N3CCCC3)c2)cc1
[A] > 75%

[Q] Determine from records and report inhibition at 10 µM for N#Cc1cnn(C(=O)N2CCCN(Cc3ccccc3)CC2)c1
[A] > 75%

[Q] Consider the compound O=C(c1cnn(C(=O)N2CCN(Cc3cccnc3)CC2)c1)N1CCCC1 . State its measured inhibition at 10 µM.
[A] < 25%

[Q] Quick one: give measured inhibition at 10 µM for Cc1cnn(C(=O)N(C)CCN(C)S(C)(=O)=O)c1
[A] < 25%

[Q] Tell us which inhibition at 10 µM value is on record for Cc1cnn(C(=O)N2CCN(Cc3c(N4CCCC4)cccc3C(F)(F)F)CC2)c1
[A] > 75%

* * *

- system under test: PLA2G7 (Mus musculus)
- Construct: Proteomes (mouse brain membrane fraction or cell lysates); from tissue; host or cells: mouse brain membrane fraction (or cell lysates, not specified)
- run description: In vitro competitive activity-based protein profiling (gel-based, FP-Rh or HT-01 probe)
- Type: biochemical
- cond: 10 μM inhibitor; read-out: % Inhibition at 10 μM, D = PLA2G7
readout kind: inhibition at 10 µM

[Q] Note down inhibition at 10 µM recorded for Cc1cnn(C(=O)N2CCCN(C(=O)OC(C)(C)C)CC2)c1
[A] < 25%

[Q] State its inhibition at 10 µM for this molecule: O=C(c1cnn(C(=O)N2CCN(Cc3cccnc3)CC2)c1)N1CCC1
[A] > 75%

[Q] Give recorded inhibition at 10 µM. Cc1cnn(C(=O)N2CCN(C(=O)c3ccccc3)CC2)c1
[A] > 75%

[Q] Hello, please tell me recorded inhibition at 10 µM for this one: Cc1cc(-c2ccccc2)ccc1CN1CCN(C(=O)n2cc(C(=O)N3CCCCC3)cn2)CC1
[A] > 75%

[Q] Input O=C(N1CCCN(Cc2ccccc2)CC1)n1cc(Cl)cn1 , output reported inhibition at 10 µM.
[A] < 25%

[Q] Tell me inhibition at 10 µM reported for Cc1cc(N2CCN(C(=O)n3cc(C#N)cn3)CC2)c2ccccc2n1
[A] > 75%

[Q] Give the value of inhibition at 10 µM reported for the following: CN(Cc1cccc(-c2ccncc2)c1)C(=O)n1cc(C#N)cn1
[A] < 25%

[Q] Give reported inhibition at 10 µM value for CC(=O)N1CCN(C(=O)n2cc(Cl)cn2)CC1
[A] > 75%

[Q] Identify the reported inhibition at 10 µM for the following entry. N#Cc1cnn(C(=O)NCCCCCc2ccccc2)c1
[A] < 25%

* * *

- system under test: PLA2G7 (Mus musculus, UniProt Q60963)
- Construct: Proteomes (mouse brain membrane fraction or cell lysates); from tissue; host or cells: mouse brain membrane fraction (or cell lysates, not specified)
- Sequence (Q60963 22-440): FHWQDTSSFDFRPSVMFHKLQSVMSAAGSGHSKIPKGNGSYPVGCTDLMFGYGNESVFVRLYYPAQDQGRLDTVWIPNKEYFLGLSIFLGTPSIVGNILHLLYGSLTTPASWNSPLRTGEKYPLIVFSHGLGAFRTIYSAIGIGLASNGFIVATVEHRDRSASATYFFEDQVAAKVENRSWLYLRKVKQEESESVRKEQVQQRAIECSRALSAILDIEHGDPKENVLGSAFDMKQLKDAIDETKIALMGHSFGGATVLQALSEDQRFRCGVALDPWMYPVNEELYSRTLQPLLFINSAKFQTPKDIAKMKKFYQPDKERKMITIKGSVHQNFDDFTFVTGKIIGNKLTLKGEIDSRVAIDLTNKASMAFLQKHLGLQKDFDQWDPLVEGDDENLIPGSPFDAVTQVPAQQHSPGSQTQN
- run description: In vitro competitive activity-based protein profiling (gel-based, FP-Rh or HT-01 probe)
- Type: biochemical
- cond: 1 μM inhibitor; read-out: % Inhibition at 1 μM, D = PLA2G7
readout kind: inhibition at 1 µM

[Q] Indicate its recorded inhibition at 1 µM; the molecule in question is O=C(N1CCN(Cc2ccccc2)CC1)n1cc(Cl)cn1
[A] < 25%

[Q] Give the reported inhibition at 1 µM for this molecule. CN1CCCN(C(=O)n2cc(C(F)(F)F)cn2)CC1
[A] < 25%

[Q] Determine from records and report inhibition at 1 µM for O=C(c1ccccc1)N1CCCN(C(=O)n2cc(Cl)cn2)CC1
[A] < 25%

[Q] Please give the documented inhibition at 1 µM of O=C(N1CCN(Cc2ccncn2)CC1)n1cc(-c2ccccc2)cn1
[A] > 75%

[Q] Note inhibition at 1 µM for the molecule shown: O=C(N1CCN(c2ccc(N3CCOCC3)cc2)CC1)n1cc(C(F)(F)F)cn1
[A] > 75%

* * *

Provide the recorded IC50 for the entries that follow.
- system under test: MAGL (Mus musculus)
- Construct: Proteomes (mouse brain membrane fraction or cell lysates); from tissue; host or cells: mouse brain membrane fraction (or cell lysates, not specified)
- Sequence (O35678 1-303): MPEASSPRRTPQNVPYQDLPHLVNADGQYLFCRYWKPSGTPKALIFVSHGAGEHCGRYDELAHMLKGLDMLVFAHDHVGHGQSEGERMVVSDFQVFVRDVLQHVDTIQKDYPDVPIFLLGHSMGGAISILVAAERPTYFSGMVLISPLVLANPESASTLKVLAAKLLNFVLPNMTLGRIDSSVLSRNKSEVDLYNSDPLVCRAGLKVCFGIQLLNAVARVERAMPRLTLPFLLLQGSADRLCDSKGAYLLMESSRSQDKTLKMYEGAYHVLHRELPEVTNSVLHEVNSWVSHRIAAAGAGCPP
- run description: In vitro competitive activity-based protein profiling (gel-based, FP-Rh or HT-01 probe)
- Format: biochemical
- cond: mouse brain membrane fraction or cell lysates, 30 min preincubation at 37° C.; read-out: Mouse (IC50 value, nM) MAGL

[Q] Recall and state the measured IC50 for COc1ccccc1N1CCN(C(=O)n2cc(C(F)(F)F)cn2)CC1 .
[A] < 100 nM

[Q] Name the recorded IC50 of the compound listed here: O=C(N1CCN(Cc2ccc3ccccc3c2)CC1)n1cccn1
[A] < 100 nM

[Q] Provide only the value of recorded IC50 for O=C(N1CCN(Cc2ccc(C(F)(F)F)cc2N2CCCC2)CC1)n1cc(F)cn1
[A] < 100 nM

[Q] Quickly give me recorded IC50 for O=C(N1CCN(Cc2ccc(Cl)cc2N2CCCC2)CC1)n1cc(Cl)cn1
[A] < 100 nM

[Q] Quickly give me recorded IC50 for CCN(Cc1cccc(OC)c1)C(=O)n1cc(C(F)(F)F)cn1
[A] > 1000 nM

[Q] Provide IC50 value for the following compound: O=C(N1CCN(Cc2cccc(C(F)(F)F)c2)CC1)n1cc(C(F)(F)F)cn1
[A] < 100 nM

[Q] Note down IC50 recorded for N#Cc1cnn(C(=O)N2CCN(Cc3ccccc3)CC2)c1
[A] < 100 nM

[Q] Assign IC50 to the following record: Cc1cc(-c2ccccc2)ccc1CN1CCN(C(=O)n2cccn2)CC1
[A] < 100 nM

[Q] Name the recorded IC50 of the item O=C(N1CCN(Cc2cccc(Oc3ccccc3)c2)CC1)n1cc(Cl)cn1 in your answer.
[A] < 100 nM

[Q] Tell me IC50 reported for O=C(N1CCN(Cc2ccc(C(F)(F)F)cc2)CC1)n1cc(Cl)cn1
[A] < 100 nM

[Q] Recall and state the measured IC50 for O=C(N1CCCN(Cc2ccccc2)CC1)n1cc(C(F)(F)F)cn1 .
[A] > 1000 nM

[Q] Fill in reported IC50 for this entry: O=C(N1CCN(Cc2ccccc2F)CC1)n1cc(C(F)(F)F)cn1
[A] < 100 nM

[Q] Write down IC50 measured for item O=C(N1CCN(Cc2ccc(Cl)c(Cl)c2)CC1)n1cc(Cl)cn1
[A] < 100 nM

[Q] Provide one value: measured IC50 of O=C(N1CCN(Cc2ccc(-c3ccccc3)cc2Cl)CC1)n1cc(Cl)cn1
[A] < 100 nM

[Q] Return reported IC50. Input compound: Cc1cc(-c2ccccc2)ccc1CN1CCN(C(=O)n2cc(C(=O)N3CCC3)cn2)CC1
[A] 100 to 1000 nM

[Q] Tell me measured IC50 for CCN(Cc1ccc(OC)cc1)C(=O)n1cc(C(F)(F)F)cn1 please.
[A] > 1000 nM

[Q] Please report the measured IC50 for O=C(N1CCN(Cc2ccc(Cl)cc2)CC1)n1cc(Cl)cn1
[A] < 100 nM

[Q] Answer with the recorded IC50 of CCN(Cc1cccc(Cl)c1)C(=O)n1cc(C#N)cn1 only.
[A] 100 to 1000 nM

[Q] Output measured IC50 for this item: O=C(N1CCN(Cc2cccc(N3CCOCC3)c2)CC1)n1cc(C(F)(F)F)cn1
[A] < 100 nM
